Biological target: MLKL (Homo sapiens, UniProt Q8NB16)
Sequence (Q8NB16 1-471): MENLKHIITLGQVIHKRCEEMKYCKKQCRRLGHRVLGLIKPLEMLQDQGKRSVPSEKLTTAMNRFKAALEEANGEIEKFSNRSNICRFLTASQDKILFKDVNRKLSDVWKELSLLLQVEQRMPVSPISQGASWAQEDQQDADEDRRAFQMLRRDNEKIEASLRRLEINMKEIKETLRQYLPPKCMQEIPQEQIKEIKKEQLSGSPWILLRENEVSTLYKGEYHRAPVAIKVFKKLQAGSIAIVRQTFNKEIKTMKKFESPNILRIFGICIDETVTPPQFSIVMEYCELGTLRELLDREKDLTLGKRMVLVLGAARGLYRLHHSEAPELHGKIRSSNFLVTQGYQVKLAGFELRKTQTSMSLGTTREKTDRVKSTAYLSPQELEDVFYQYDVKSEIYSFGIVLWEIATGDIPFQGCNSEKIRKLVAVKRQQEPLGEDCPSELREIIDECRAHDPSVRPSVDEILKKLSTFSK
OBSERVABLE: log10 of Kd (log10 of the value in nM)
A value of 2 here means Kd of 100 in nM, since values are log10.

[Q] Item under review: `Cc1ncsc1-c1ccc(CNC(=O)[C@@H]2C[C@@H](O)CN2C(=O)[C@@H](NC(=O)CN2CCC(CN3CCC(n4cc(-c5cnc(N)c(C(=O)O[C@@H](C(=O)Nc6ccc(F)cc6)c6ccccc6)n5)cn4)CC3)CC2)C(C)(C)C)cc1` . Reported log10 of Kd?
[A] 0.80

[Q] Suppose we examine the compound CC(=O)N1CC[C@@H](n2cc(-c3cnc(N)c(C(=O)OC(C(=O)Nc4ccc(F)cc4)c4ccccc4)n3)cn2)C1 (some centres unmarked) ; what log10 of Kd value has been reported?
[A] 0.04

[Q] Value lookup for log10 of Kd; key = Nc1ncc(-c2cnn(C3CCN(C4CC5(CCN(CC6CCN(C(=O)Cc7cccc(NC8=CC(=O)N(C9CCC(=O)NC9=O)C8=O)c7)CC6)CC5)C4)CC3)c2)nc1C(=O)O[C@@H](C(=O)Nc1ccc(F)cc1)c1ccccc1 (some centres unmarked)
[A] -0.19

[Q] Bench note: what log10 of Kd did `Nc1ncc(-c2cnn(C3CCN(CCC4CCN(C(=O)c5ccc6c(N7CCC(=O)NC7=O)coc6c5)CC4)CC3)c2)nc1C(=O)O[C@@H](C(=O)Nc1ccc(F)cc1)c1ccccc1` show?
[A] -0.39

[Q] Look up log10 of Kd: Nc1ncc(-c2cnn(C3CCN(CCCCCCCCCCNC(=O)COc4ccc5nnn(C6CCC(=O)NC6=O)c(=O)c5c4)CC3)c2)nc1C(=O)O[C@@H](C(=O)Nc1ccc(F)cc1)c1ccccc1 (some centres unmarked)
[A] 1.34
